Biological target: T1, human Y4 receptor (human, UniProt P0DQD5 1-375)
T1 construct: also called hp25a; hp25a receptor
T1 sequence (P0DQD5 whole entry): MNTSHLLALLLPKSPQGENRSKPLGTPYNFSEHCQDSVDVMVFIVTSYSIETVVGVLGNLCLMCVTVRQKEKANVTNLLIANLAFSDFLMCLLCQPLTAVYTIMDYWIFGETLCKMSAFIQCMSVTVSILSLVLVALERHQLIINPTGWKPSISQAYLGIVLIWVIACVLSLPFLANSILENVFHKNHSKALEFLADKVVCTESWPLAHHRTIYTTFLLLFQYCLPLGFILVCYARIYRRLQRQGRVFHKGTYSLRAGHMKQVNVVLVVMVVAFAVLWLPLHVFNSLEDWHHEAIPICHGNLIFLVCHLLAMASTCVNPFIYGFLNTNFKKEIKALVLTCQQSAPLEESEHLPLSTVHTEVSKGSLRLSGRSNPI
Assay: 125I-PYY displacement, COS-7 membranes
Where no end group is shown, it is not given here.
value-type: Ki

Incoming: // returns reported Ki for input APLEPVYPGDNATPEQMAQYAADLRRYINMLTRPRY-NH2 (peptide, UniProt P01298 30-65, looked up, mature; also called human PP; PP, human) [human pancreatic polypeptide]
Outgoing: 0.02 nM
